biological target: FZD2 cysteine-rich domain (CRD), MYC-tagged and GPI-anchored on CHO cells (human, UniProt Q14332 35-161); assay: flow cytometry, CHO-CRD cells;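 also: flow cytometry of Fab binding to CHO cells overexpressing a Frizzled CRD, with binding defined as median fluorescence over twice that of CHO cells lacking any Frizzled CRD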
Value type: median fluorescence
Form field (numeric): enter value without unit.

Binder: Fab-2920 (Fab, V domains shown, Fab) VH: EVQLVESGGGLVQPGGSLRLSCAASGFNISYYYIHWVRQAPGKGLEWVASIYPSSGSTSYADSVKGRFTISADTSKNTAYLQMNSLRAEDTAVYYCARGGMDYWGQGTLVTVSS VL: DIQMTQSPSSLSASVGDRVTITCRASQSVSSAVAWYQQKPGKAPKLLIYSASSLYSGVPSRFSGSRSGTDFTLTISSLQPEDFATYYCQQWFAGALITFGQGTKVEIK
median fluorescence: 4.57

Now consider the entry below.
Consider the binder Fab-2911 (Fab, V domains shown, Fab; also called Fv-2911) VH: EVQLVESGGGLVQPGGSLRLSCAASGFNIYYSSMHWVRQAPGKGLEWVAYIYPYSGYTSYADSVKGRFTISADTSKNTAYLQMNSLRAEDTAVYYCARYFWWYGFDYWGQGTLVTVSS VL: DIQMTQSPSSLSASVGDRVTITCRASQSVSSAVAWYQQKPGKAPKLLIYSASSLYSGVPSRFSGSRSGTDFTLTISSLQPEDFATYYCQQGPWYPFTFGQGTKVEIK and give its recorded median fluorescence.
22.7
